Each recorded value in this set is attributed to PubChem BioAssay AID1242.

# ASSAY_COMMENT: Candida albicans biofilm persister killing – 4-compound mixtures, primary screen (AID 1242);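 note: compounds exposed to preformed 24 h biofilms for 48 h; 0% = untreated biofilm control and 100% = clotrimazole plus chlorhexidine kill blank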
# CONDITION_INFO: C. albicans biofilm persisters + clotrimazole, fluorescence viability, primary screen in compound mixtures, active compounds read high; at 7.6 µM unless noted
Out of some 120,000 compounds screened, about 20 (0.02%) were called active. This is one part of a sample in which actives are shown more often than they occur.
This listing pairs compounds with measured inhibition.
Kindly answer with a numeric value in %, unit omitted.

Field: example entries. Status: answers known.
compound=COc1ccc(/C=N/NC(=O)CNC(=O)c2ccc(S(=O)(=O)N3CCCC3)cc2)c(OC)c1 measure=inhibition reported_result=1.69
compound=COCCC(=O)Nc1ccc2c(c1)CN(C(=O)CCOC)CC2 measure=inhibition reported_result=18
compound="COc1ccc(C(=O)C2CCCN(C(=O)c3cc4nc(C)cc(C)n4n3)C2)cc1F (stereo unspecified)" measure=inhibition reported_result=16.6
compound=Nc1c(N(CCO)C(=O)C2CCCCC2)c(=O)[nH]c(=O)n1Cc1ccccc1 measure=inhibition reported_result=4.09
compound=Cc1nnc(Nc2ccccc2F)s1 measure=inhibition reported_result=16.6

Fill in: inhibition of COc1c(C)cc(C(=O)C2CCCN(S(=O)(=O)c3c(C)noc3C)C2)cc1C (stereo unspecified) is ___ 2.3
